organism: Rattus norvegicus; assay: DrugMatrix - Regimen: Daily Repeat; type: toxicity, organism-based, Sprague-Dawley; design: regimen Daily Repeat, gender Male, age 6-8 weeks; conditions: in vivo, ip, 0 mg/kg, 120 h, tissue Blood, route intraperitoneal, dose level Control, time 5 day, vehicle 100 % SALINE
endpoint: ABSOLUTE EOSINOPHIL (cells/µL)
Numbers only, in cells/µL.

So what's the measured ABSOLUTE EOSINOPHIL for this one? `NC[C@H]1O[C@H](O[C@H]2[C@H](O)[C@@H](O[C@H]3O[C@H](CO)[C@@H](O)[C@H](N)[C@H]3O)[C@H](N)C[C@@H]2N)[C@H](N)C[C@@H]1O`
110

Where these numbers come from: ChEMBL document CHEMBL3885881
